Biological target: T1, human MSLN-R2-his protein (human, UniProt Q13421 391-486)
T1 construct: Region 2 of human mesothelin, made in HEK293E cells, His-tagged; also called human MSLN-R2 protein; hMSLN-R2-his; not shown: His tag
T1 sequence (Q13421 other isoform, or with tags, fused parts or gaps): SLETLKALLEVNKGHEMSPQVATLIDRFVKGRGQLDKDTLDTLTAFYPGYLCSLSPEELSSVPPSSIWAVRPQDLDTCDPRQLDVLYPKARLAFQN
Experiment: ELISA on coated MSLN-R2; antibody 0.1 nM
Readout: OD450 (OD450)
Reply numerically in OD450, unit not repeated.

QUERY: So what does the record say about OD450 for S009-F8-33.12 (antibody, human IgG1, kappa, V domains shown) VH: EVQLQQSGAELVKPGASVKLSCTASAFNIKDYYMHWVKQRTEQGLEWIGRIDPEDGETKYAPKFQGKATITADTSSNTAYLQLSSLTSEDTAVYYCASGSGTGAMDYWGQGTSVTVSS VL: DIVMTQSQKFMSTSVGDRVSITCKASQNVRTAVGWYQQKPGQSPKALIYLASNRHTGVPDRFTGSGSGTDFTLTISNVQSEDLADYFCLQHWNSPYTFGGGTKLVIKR ?
RESULT: 0.04
